# testSummary: Oral bioavailability in Sprague Dawley rat at 10 mg/kg
# Assay type: ADME, organism-based
# reportedConditions: in vivo
observedProperty: bioavailability (%)

> print(dat)
                                   compound  valueobserved
1  CC(C)CC(c1ccc(C(=O)NCCC(=O)O)cc1)n1ccc2cc(-c3ccc(C(F)(F)F)cc3)ccc21 (racemic)           51.7

----------
# key: entry, value: half-life
# testSummary: Elimination half life in C57 black mouse at 20 mg/kg, po
# Format: ADME, organism-based
# reportedConditions: in vivo, read-out: beta t1/2 (converted)
observedProperty: half-life (h)

> print(dat)
                                   compound  valueobserved
1  CC(C)CC(c1ccc(C(=O)NCCC(=O)O)cc1)n1ccc2cc(-c3ccc(C(F)(F)F)cc3)ccc21 (racemic)            3.9
2  Cc1cc(C(F)(F)F)ccc1-c1cc2cnn(C(CC(C)C)c3ccc(C(=O)NCCC(=O)O)nc3)c2cc1C (racemic)            4.8

----------
# key: entry, value: AUC(0-t)
# testSummary: AUClast in C57 black mouse at 20 mg/kg, po
# Type: ADME, organism-based
# Parameters: dose 20 mg/kg, time 0 - last, route oral
# reportedConditions: in vivo
observedProperty: AUC(0-t) (µM·h)

> print(dat)
                                   compound  observedproperty  unitspec  valueobserved
1  Cc1cc(C(F)(F)F)ccc1-c1ccc2nn(C(CC(C)C)c3ccc(C(=O)NCCC(=O)O)cc3)cc2c1Cl (racemic)          AUC(0-t)      µM·h            290
2  Cc1cc(C(F)(F)F)ccc1-c1cc2cnn(C(CC(C)C)c3ccc(C(=O)NCCC(=O)O)nc3)c2cc1C (racemic)          AUC(0-t)      µM·h            111
3  CC(C)CC(c1ccc(C(=O)NCCC(=O)O)cc1)n1ccc2cc(-c3ccc(C(F)(F)F)cc3)ccc21 (racemic)          AUC(0-t)      µM·h            116

----------
# testSummary: Cmax in Sprague Dawley rat at 10 mg/kg, po
# Format: ADME, organism-based
# Parameters: dose 10 mg/kg, route oral
# reportedConditions: in vivo
observedProperty: Cmax (nM)

> print(dat)
                                   compound  observedproperty  valueobserved
1  CC(C)CC(c1ccc(C(=O)NCCC(=O)O)cc1)n1ccc2cc(-c3ccc(C(F)(F)F)cc3)ccc21 (racemic)              Cmax           1400

----------
# testSummary: Clearance in Sprague Dawley rat at 2 mg/kg, iv
# Format: ADME, organism-based
# reportedConditions: in vivo
observedProperty: clearance (mL/min/kg)

> print(dat)
                                   compound  valueobserved
1  CC(C)CC(c1ccc(C(=O)NCCC(=O)O)cc1)n1ccc2cc(-c3ccc(C(F)(F)F)cc3)ccc21 (racemic)           12.2

----------
# testSummary: Elimination half life in C57 black mouse at 5 mg/kg, iv
# Type: ADME, organism-based
# reportedConditions: in vivo, read-out: beta t1/2 (converted)
observedProperty: half-life (min)

> print(dat)
                                   compound  observedproperty  valueobserved
1  Cc1cc(C(F)(F)F)ccc1-c1ccc2nn(C(CC(C)C)c3ccc(C(=O)NCCC(=O)O)cc3)cc2c1Cl (racemic)         half-life            396
2  Cc1cc(C(F)(F)F)ccc1-c1cc2cnn(C(CC(C)C)c3ccc(C(=O)NCCC(=O)O)nc3)c2cc1C (racemic)         half-life            300
3  CC(C)CC(c1ccc(C(=O)NCCC(=O)O)cc1)n1ccc2cc(-c3ccc(C(F)(F)F)cc3)ccc21 (racemic)         half-life            222
